assay: Plasma concentration in mouse at 10 mg/kg, po after 1 hr
Metric name: concentration at 1 h (µM)
Respond with the bare value in µM.

Which concentration at 1 h reading was recorded for the compound CN(c1cccn(O)c1=O)S(=O)(=O)c1ccc(Oc2ccc(Cl)cc2)cc1 ?
34

---

biological target: Stromelysin-1 (Homo sapiens, UniProt P08254); assay: Inhibition of MMP3
Sequence (P08254 whole entry): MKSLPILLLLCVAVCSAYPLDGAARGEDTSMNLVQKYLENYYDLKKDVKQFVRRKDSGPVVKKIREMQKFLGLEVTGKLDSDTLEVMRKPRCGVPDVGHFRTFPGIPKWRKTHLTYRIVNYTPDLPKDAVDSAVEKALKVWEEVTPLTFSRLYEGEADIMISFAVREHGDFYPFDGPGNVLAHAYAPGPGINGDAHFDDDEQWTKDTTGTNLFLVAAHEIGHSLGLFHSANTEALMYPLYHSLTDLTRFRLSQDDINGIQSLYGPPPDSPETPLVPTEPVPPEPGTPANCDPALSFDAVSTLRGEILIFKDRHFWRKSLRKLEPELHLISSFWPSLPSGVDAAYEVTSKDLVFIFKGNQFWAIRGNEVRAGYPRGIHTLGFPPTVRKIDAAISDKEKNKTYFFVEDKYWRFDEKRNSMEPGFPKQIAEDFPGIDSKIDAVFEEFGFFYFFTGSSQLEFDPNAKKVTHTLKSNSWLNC
# reported IC50; entries follow
State the value with its unit after it.

Which IC50 reading was recorded for the compound O=c1c(N(CCN2CCOCC2)S(=O)(=O)c2ccc(Oc3ccc(Cl)cc3)cc2)cccn1O ?
62.9 nM

New cases:
Which IC50 reading was recorded for the compound CN(c1cccn(O)c1=O)S(=O)(=O)c1ccc(Oc2ccc(Cl)cc2)cc1 ?
56.5 nM
